# Assay Comment: TMS crossover study, pharmacokinetic analysis
# Type: in vivo, human
# Details: male, human, plasma, oral, 20 mg, Period 1 (N=10), 24 h sampling, Range
Property: half-life

Value of measured half-life for the entry Cc1cc(N2CCc3cc(F)ccc3C2)cc(C)c1NC(=O)CC(C)(C)C [Compound A] : 8.46 to 14.9 h

----------
# Assay Comment: First-in-human SAD and MAD study, pharmacokinetics
# Assay type: in vivo
# Details: human, plasma, oral, 15 mg, MAD, 15 mg Fed, Day 1, N=6, mean; read-out: AUC0-24
Property: AUC(0-t) (ng·h/mL)
Use ng·h/mL as the unit, but write only the number.

Sure, the documented AUC(0-t) for Cc1cc(N2CCc3cc(F)ccc3C2)cc(C)c1NC(=O)CC(C)(C)C [Compound A] is 353

----------
# Assay Comment: First-in-human SAD and MAD study, pharmacokinetics
# Type: in vivo
# Details: human, plasma, oral, 25 mg, MAD, 25 mg QD Fed, Day 10, N=6, mean; read-out: AUC0-t
Property: AUC(0-t)
Number plus unit, in that order.

Lookup result for Cc1cc(N2CCc3cc(F)ccc3C2)cc(C)c1NC(=O)CC(C)(C)C ; measured AUC(0-t): 8010 ng·h/mL

----------
# Assay Comment: First-in-human SAD and MAD study, pharmacokinetics
# Format: in vivo
# Details: human, plasma, oral; SAD, 15 mg fasted, N=3, Mean ± SD; read-out: T1/2 (converted)
Property: half-life
Kindly format the answer as number then unit.

The molecule Cc1cc(N2CCc3cc(F)ccc3C2)cc(C)c1NC(=O)CC(C)(C)C showed half-life equal to 41.9 h

----------
# Assay Comment: First-in-human SAD and MAD study, pharmacokinetics
# Type: in vivo
# Details: human, plasma, oral; SAD, 20 mg fasted, N=6, Mean ± SD; read-out: T1/2 (converted)
Property: half-life (h)
All answers are understood in h, so give the number only.

Recorded result, Cc1cc(N2CCc3cc(F)ccc3C2)cc(C)c1NC(=O)CC(C)(C)C [Compound A] , half-life: 48.9

----------
# Assay Comment: TMS crossover study, pharmacokinetic analysis
# Format: in vivo, human
# Details: male, human, plasma, oral, 20 mg, Overall (N=20), 24 h sampling, Mean ± SD
Property: half-life (min)
# number only, unit min dropped from output

The recorded half-life for Cc1cc(N2CCc3cc(F)ccc3C2)cc(C)c1NC(=O)CC(C)(C)C is 666

----------
# Assay Comment: First-in-human SAD and MAD study, pharmacokinetics
# Type: in vivo
# Details: human, plasma, oral, 5 mg, SAD, 5 mg fasted, N=3, Mean ± SD
Property: Cmax (ng/mL)
The answer is to be given in ng/mL; state only the numeric part.

Sample Cc1cc(N2CCc3cc(F)ccc3C2)cc(C)c1NC(=O)CC(C)(C)C ; Cmax observed: 7.13

----------
# Assay Comment: TMS crossover study, pharmacokinetic analysis
# Type: in vivo, human
# Details: male, human, plasma, oral, 20 mg, Overall (N=20), Median
Property: Tmax (h)
The reply should be a number in h, with the unit left off.

Cc1cc(N2CCc3cc(F)ccc3C2)cc(C)c1NC(=O)CC(C)(C)C has a reported Tmax of 7.8

----------
# Assay Comment: TMS crossover study, pharmacokinetic analysis
# Assay type: in vivo, human
# Details: male, human, plasma, oral, 20 mg, Full PK Profile Data Set (N=16), Mean ± SD; read-out: CL/F normalized (converted)
Property: CL/F (mL/min/kg)
Report the value in mL/min/kg with no unit label.

CL/F in this record for Cc1cc(N2CCc3cc(F)ccc3C2)cc(C)c1NC(=O)CC(C)(C)C [Compound A] : 1.62
